# Tgt: COX2 (Homo sapiens)
# Construct: purchased Cayman Chemical, USA 560131
# Sequence (P35354 18-604): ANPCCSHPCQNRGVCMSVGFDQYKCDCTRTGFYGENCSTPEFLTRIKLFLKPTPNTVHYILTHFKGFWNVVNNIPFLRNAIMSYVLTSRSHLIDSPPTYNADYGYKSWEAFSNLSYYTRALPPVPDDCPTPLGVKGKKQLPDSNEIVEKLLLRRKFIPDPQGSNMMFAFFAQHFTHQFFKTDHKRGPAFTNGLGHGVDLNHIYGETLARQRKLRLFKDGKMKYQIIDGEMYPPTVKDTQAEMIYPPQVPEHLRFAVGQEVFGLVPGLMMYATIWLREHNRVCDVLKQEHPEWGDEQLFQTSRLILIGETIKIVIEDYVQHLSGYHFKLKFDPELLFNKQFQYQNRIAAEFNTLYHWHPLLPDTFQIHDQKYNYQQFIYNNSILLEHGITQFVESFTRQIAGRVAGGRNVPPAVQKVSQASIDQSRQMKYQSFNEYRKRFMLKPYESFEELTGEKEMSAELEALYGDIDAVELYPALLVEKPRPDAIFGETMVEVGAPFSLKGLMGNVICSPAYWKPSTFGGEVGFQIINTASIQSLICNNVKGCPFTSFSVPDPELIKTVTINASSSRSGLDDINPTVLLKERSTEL
# Protocol Notes: biochemical
Endpoint: IC50 (µM)
Record the value in µM, omitting the unit from your answer.

INPUT: Bench note: what IC50 did COc1ccc2cc([C@H](C)C(=O)Oc3ccc(NC(C)=O)cc3)ccc2c1 show?
OUTPUT: 5.23
